B1: HDV Ribozyme (parent)
chain: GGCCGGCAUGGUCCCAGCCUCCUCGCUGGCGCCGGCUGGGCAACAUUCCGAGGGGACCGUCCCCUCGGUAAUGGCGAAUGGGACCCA

- Variants of: B1
- Assay details: self-cleavage, relative activity (ratio to wild type); higher = more cleavage; co-transcriptional
// label = YES if self-cleavage is not less than 0.4, otherwise NO

> print(dat)
   mutation.list  label.class
1      C26G C36A           NO
2       A8U C19G           NO
3      G50U A77C          YES
4      G25C C84G           NO
5      G50C A87U          YES

Exercise: Please indicate if the recorded self-cleavage for C21U G53U meets or exceeds 0.4.
Solution: NO

Exercise: Please give the result for G31C C49A too.
Solution: YES

Reference for the values: the RNAGym collection of RNA variant scans (doi:10.7554/elife.80360)
